Provenance of the data: the supplement of paper PMC7125110

B1: glmS ribozyme (parent)
chain: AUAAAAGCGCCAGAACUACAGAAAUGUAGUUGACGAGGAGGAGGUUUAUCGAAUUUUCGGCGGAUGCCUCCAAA

- Variants of: B1
- test_details: kcat; higher = faster cleavage; RNA array
- condition_set: with glucosamine-6-phosphate
Fewer inactive variants are shown than the library holds.
Assign a class from recorded kcat; defined classes: bin A = under 0.0001 s⁻¹, bin B = from 0.0001 s⁻¹ up to 0.003 s⁻¹, bin C = 0.003 s⁻¹ and over

Task: Input `AUAAAAGCGCCAGAACUACAGAAAUGUAGUCGACGAGGAGGAGGUUUAUCGAAUUUUCGGCGGAUACCUCCAAA` ; output its category
Output: bin B

Task: Categorize the following entry: `AUAAAUGCGCCAGAAAUACAGAAAUGUAGUUGACGAGGAGGAGGUUUAUCGAAUUUUCGGCGGAUGCCUCCAAA`
Output: bin A

Task: Lab note: sort `AUAAAAUGGCCAGAACUACAGAAAUGUAGUUGACGAGGAGGAGGUUUAUAGAAUUUUCGGCGGAUGCCUCCAAA` into the matching kcat band.
Output: bin A

Task: Tag the class for `AUAAAAGCGCCAGUACUACAGAAAUGUAGUUGACGAGGAGGAGGUUUAUUGAAUUUUUGUCGGAUGCCUCCAAA`
Output: bin A

Task: Category of `AUAAAAGCGCUAGAACUACAGAAAUGUAGUUGACGAGGAGGAGGUUUAUCGAAUUUUCGGCGGAUGCCUCCAAA` :
Output: bin C

Task: Please report the category associated with `AUAAAAGCGCCAGAACUACAGAAAUGUAGUUGACGAGGAGGAGGUAUAUCGAAUAUUCGGCGGAUGCCUCCAAA` , nothing else.
Output: bin C

Task: Looking at `AUAAAAGCGCCAGAACUACAGAAAUGUAGUUGACGAGGAGGAGGAUUAUCGAAUUUUCGGCGGAUGCCACCAAA` , which class would you pick?
Output: bin B

Task: # bin label for `AUAAAAGCGCCGGAACUACAGAAAUGUAGUCGACGAGGAGGAGGUUUAUCGAAUUUUCGGCGGAUGCCUCCAAA`
Output: bin B

Task: Input `AUAAAAGCGCCAGAACUACAGAAAUGUAGUUGACGAGGAGGAGGUCAAUCGAAUUUUCGGCGGAUGCCUCCAAA` ; output its category
Output: bin C

Task: Each variant maps to one class by kcat. Which class for `AUAAAAGCGCCAGAACUACAGAAAUGUAGUUGACGAGGAGGAGGUAUAUCGAAUUUUCGGCGGAUGCCUUCAAA` ?
Output: bin C

Task: Assign a bin to `AUAAAAGCGCCAGAACUACAGAAAUGUAGUAGACGAGGAGGAGGUUUAUCGACUUUUCGGCGGAUGCCUCCAAA`
Output: bin C

Task: Which of the defined bands does the recorded kcat of `AUAAAAGCGCCAGACAUACAGAAAUGUAGUUGACGAGGAGGAGGUUUAUCGAAUUUUCGGCGGAUGCGUCCAAA` sit within?
Output: bin A

Task: Which band does `AUAAAAGCGCCAGAAGUACAGAAAUGUAGUUGACGAGGAGGAGGUUUAUCGAAUUAUCGGCGGAUGCCUCCAAA` fall in?
Output: bin C

Task: Class (by measured kcat) for `AUAAAAGCGCCAGAACUACAGAAAUGUAGUUGACGAGGAGGGGGUUGAUCGAAUUUUCGGCGGAUGCCUCCAAA`
Output: bin C

Task: Which class holds `AUAAAAACGCCAGAACUACAGAAAUGUAGUUGACGAGGAGGAGGAUUAUCGAAUUUUCGGCGGAUGCCUCCAAA` ?
Output: bin A

Task: Textbook exercise: identify the category of the variant given here, `AUAAAAGCGCCAGAACUACAGAAAUGUAGUUGACGACGAGGAGGUUUAUCGAAUUUUCGGCGGAUGCUUCCAAA` , according to its measured value.
Output: bin A
